# System: NCI-H23
# assay summary: Growth inhibition of human NCI-H23 cells after 48 hrs by sulforhodamine B assay
# Assay type: functional
# conditions used: NCI-H23, 48 h, read-out: pTGI (converted)
Classify as follows. Reported TGI greater than or equal to 30 µM: Satisfied. Reported TGI below: Not satisfied.

Is reported TGI greater than or equal to 30 µM here: Nc1cc(N)c2nc(-c3ccccc3)c(Oc3ccc(F)cc3)nc2c1
Satisfied

Is reported TGI greater than or equal to 30 µM here: COc1ccc(Sc2nc3cc(N)cc(N)c3nc2-c2ccccc2)cc1
Satisfied

Is reported TGI greater than or equal to 30 µM here: COc1cc(OC)cc(Oc2nc3cc(N)cc(N)c3nc2-c2ccccc2)c1
Not satisfied

Is reported TGI greater than or equal to 30 µM here: Nc1cc(N)c2nc(-c3ccccc3)c(NCc3ccc(Cl)c(Cl)c3)nc2c1
Not satisfied

Is reported TGI greater than or equal to 30 µM here: Nc1cc(N)c2nc(-c3ccccc3)c(Sc3ccc(Cl)c(Cl)c3)nc2c1
Satisfied

Is reported TGI greater than or equal to 30 µM here: COc1ccc(CNc2nc3cc(N)cc(N)c3nc2-c2ccccc2)cc1
Satisfied

New cases:
Is reported TGI greater than or equal to 30 µM here: Nc1cc(N)c2nc(-c3ccccc3)c(Oc3ccc(Cl)c(Cl)c3)nc2c1
Satisfied

Is reported TGI greater than or equal to 30 µM here: Nc1cc(N)c2nc(-c3ccccc3)c(NCc3ccc(F)cc3)nc2c1
Not satisfied

Is reported TGI greater than or equal to 30 µM here: COc1cc(CNc2nc3cc(N)cc(N)c3nc2-c2ccccc2)cc(OC)c1
Satisfied

Is reported TGI greater than or equal to 30 µM here: COc1ccc(CNc2nc3cc(N)cc(N)c3nc2-c2ccccc2)cc1OC
Satisfied

====

# Tested on: ACHN
# assay summary: Growth inhibition of human ACHN cells after 48 hrs by sulforhodamine B assay
# Assay type: functional
# label = met if GI50 < 10 µM else not met

Criterion: GI50 strictly below 10 µM. Is it met by Nc1cc(N)c2nc(-c3ccccc3)c(Oc3ccc(Cl)c(Cl)c3)nc2c1 ?
met

Criterion: GI50 strictly below 10 µM. Is it met by COc1ccc(CNc2nc3cc(N)cc(N)c3nc2-c2ccccc2)cc1 ?
not met

Criterion: GI50 strictly below 10 µM. Is it met by COc1cc(OC)cc(Oc2nc3cc(N)cc(N)c3nc2-c2ccccc2)c1 ?
not met

Criterion: GI50 strictly below 10 µM. Is it met by Nc1cc(N)c2nc(-c3ccccc3)c(Sc3ccc(Cl)c(Cl)c3)nc2c1 ?
met

Criterion: GI50 strictly below 10 µM. Is it met by Nc1cc(N)c2nc(-c3ccccc3)c(NCc3ccc(F)cc3)nc2c1 ?
met

Criterion: GI50 strictly below 10 µM. Is it met by Nc1cc(N)c2nc(-c3ccccc3)c(Sc3ccc(F)cc3)nc2c1 ?
not met

New cases:
Criterion: GI50 strictly below 10 µM. Is it met by COc1cc(CNc2nc3cc(N)cc(N)c3nc2-c2ccccc2)cc(OC)c1OC ?
met

Criterion: GI50 strictly below 10 µM. Is it met by COc1cc(CNc2nc3cc(N)cc(N)c3nc2-c2ccccc2)cc(OC)c1 ?
met

Criterion: GI50 strictly below 10 µM. Is it met by Nc1cc(N)c2nc(-c3ccccc3)c(Oc3ccc(F)cc3)nc2c1 ?
not met

Criterion: GI50 strictly below 10 µM. Is it met by COc1ccc(Oc2nc3cc(N)cc(N)c3nc2-c2ccccc2)cc1 ?
not met

Criterion: GI50 strictly below 10 µM. Is it met by COc1ccc(CNc2nc3cc(N)cc(N)c3nc2-c2ccccc2)cc1OC ?
not met

====

Quick list: CC50 per entry.
# Tested on: OVCAR-5
# assay summary: Growth inhibition of human OVCAR5 cells after 48 hrs by sulforhodamine B assay
# Type: functional
# conditions used: OVCAR-5, 48 h, read-out: pLC50 (the source's name) (converted)

Past entries and their recorded results:
Test item Nc1cc(N)c2nc(-c3ccccc3)c(Oc3ccc(F)cc3)nc2c1 ; OVCAR-5; reported CC50 was > 100 µM

Test item COc1cc(CNc2nc3cc(N)cc(N)c3nc2-c2ccccc2)cc(OC)c1OC ; OVCAR-5; reported CC50 was > 50.1 µM

Test item COc1cc(CNc2nc3cc(N)cc(N)c3nc2-c2ccccc2)cc(OC)c1 ; OVCAR-5; reported CC50 was > 100 µM

Test item COc1ccc(Sc2nc3cc(N)cc(N)c3nc2-c2ccccc2)cc1 ; OVCAR-5; reported CC50 was > 100 µM

Test item COc1cc(OC)cc(Oc2nc3cc(N)cc(N)c3nc2-c2ccccc2)c1 ; OVCAR-5; reported CC50 was 40.7 µM

Test item Nc1cc(N)c2nc(-c3ccccc3)c(NCc3ccc(F)cc3)nc2c1 ; OVCAR-5; reported CC50 was > 100 µM

Test item Nc1cc(N)c2nc(-c3ccccc3)c(Oc3ccc(Cl)c(Cl)c3)nc2c1 ; OVCAR-5; reported CC50 was > 100 µM

Test item Nc1cc(N)c2nc(-c3ccccc3)c(Sc3ccc(Cl)c(Cl)c3)nc2c1 ; OVCAR-5; reported CC50 was 91.2 µM

New cases:
Test item COc1ccc(CNc2nc3cc(N)cc(N)c3nc2-c2ccccc2)cc1OC ; OVCAR-5; reported CC50 was 81.3 µM

Test item COc1ccc(Oc2nc3cc(N)cc(N)c3nc2-c2ccccc2)cc1 ; OVCAR-5; reported CC50 was > 100 µM

====

# Test system: HL-60(TB)
# assay summary: Growth inhibition of human HL-60(TB) cells after 48 hrs by sulforhodamine B assay
# Format: functional
# conditions used: HL-60, 48 h
Quick list: GI50 per entry.
Hi! Could you send only the number? It should be in µM, unit omitted.

So, Nc1cc(N)c2nc(-c3ccccc3)c(Sc3ccc(Cl)c(Cl)c3)nc2c1 ? Its GI50 was 7.94

So, COc1ccc(Oc2nc3cc(N)cc(N)c3nc2-c2ccccc2)cc1 ? Its GI50 was 15.5

So, COc1cc(OC)cc(Oc2nc3cc(N)cc(N)c3nc2-c2ccccc2)c1 ? Its GI50 was 3.09

So, Nc1cc(N)c2nc(-c3ccccc3)c(Oc3ccc(F)cc3)nc2c1 ? Its GI50 was 18.6

So, COc1cc(CNc2nc3cc(N)cc(N)c3nc2-c2ccccc2)cc(OC)c1 ? Its GI50 was 3.8

So, Nc1cc(N)c2nc(-c3ccccc3)c(Sc3ccc(F)cc3)nc2c1 ? Its GI50 was 38.9

New cases:
So, COc1cc(CNc2nc3cc(N)cc(N)c3nc2-c2ccccc2)cc(OC)c1OC ? Its GI50 was 1.26

So, COc1ccc(CNc2nc3cc(N)cc(N)c3nc2-c2ccccc2)cc1OC ? Its GI50 was 3.16

====

# System: EKVX
# assay summary: Growth inhibition of human EKVX cells after 48 hrs by sulforhodamine B assay
# Type: functional
# label = rule met if GI50 < 6 µM else rule not met

Criterion: GI50 strictly below 6 µM. Is it met by COc1cc(CNc2nc3cc(N)cc(N)c3nc2-c2ccccc2)cc(OC)c1 ?
rule met

Criterion: GI50 strictly below 6 µM. Is it met by COc1ccc(CNc2nc3cc(N)cc(N)c3nc2-c2ccccc2)cc1 ?
rule not met

Criterion: GI50 strictly below 6 µM. Is it met by Nc1cc(N)c2nc(-c3ccccc3)c(Oc3ccc(Cl)c(Cl)c3)nc2c1 ?
rule met

Criterion: GI50 strictly below 6 µM. Is it met by Nc1cc(N)c2nc(-c3ccccc3)c(NCc3ccc(Cl)c(Cl)c3)nc2c1 ?
rule not met

Criterion: GI50 strictly below 6 µM. Is it met by COc1cc(CNc2nc3cc(N)cc(N)c3nc2-c2ccccc2)cc(OC)c1OC ?
rule met

Criterion: GI50 strictly below 6 µM. Is it met by COc1cc(OC)cc(Oc2nc3cc(N)cc(N)c3nc2-c2ccccc2)c1 ?
rule met

New cases:
Criterion: GI50 strictly below 6 µM. Is it met by Nc1cc(N)c2nc(-c3ccccc3)c(Sc3ccc(F)cc3)nc2c1 ?
rule not met

Criterion: GI50 strictly below 6 µM. Is it met by Nc1cc(N)c2nc(-c3ccccc3)c(NCc3ccc(F)cc3)nc2c1 ?
rule met

Criterion: GI50 strictly below 6 µM. Is it met by Nc1cc(N)c2nc(-c3ccccc3)c(Oc3ccc(F)cc3)nc2c1 ?
rule not met

Criterion: GI50 strictly below 6 µM. Is it met by COc1ccc(Oc2nc3cc(N)cc(N)c3nc2-c2ccccc2)cc1 ?
rule not met

====

# System: OVCAR-5
# assay summary: Growth inhibition of human OVCAR5 cells after 48 hrs by sulforhodamine B assay
# Format: functional
# conditions used: OVCAR-5, 48 h, read-out: pLC50 (the source's name) (converted)
experimental readout: CC50

Past entries and their recorded results:
So, Nc1cc(N)c2nc(-c3ccccc3)c(Sc3ccc(F)cc3)nc2c1 ? Its CC50 was > 100 µM

So, Nc1cc(N)c2nc(-c3ccccc3)c(NCc3ccc(Cl)c(Cl)c3)nc2c1 ? Its CC50 was 69.2 µM

New cases:
So, COc1ccc(CNc2nc3cc(N)cc(N)c3nc2-c2ccccc2)cc1 ? Its CC50 was > 100 µM
